Target: D112N-CXCR3 (Homo sapiens, UniProt P49682, D112N)
Construct: expressed in transfected cells; host or cells: murine pre-B cell line L1.2, transient transfection
Sequence (P49682 whole entry D112N): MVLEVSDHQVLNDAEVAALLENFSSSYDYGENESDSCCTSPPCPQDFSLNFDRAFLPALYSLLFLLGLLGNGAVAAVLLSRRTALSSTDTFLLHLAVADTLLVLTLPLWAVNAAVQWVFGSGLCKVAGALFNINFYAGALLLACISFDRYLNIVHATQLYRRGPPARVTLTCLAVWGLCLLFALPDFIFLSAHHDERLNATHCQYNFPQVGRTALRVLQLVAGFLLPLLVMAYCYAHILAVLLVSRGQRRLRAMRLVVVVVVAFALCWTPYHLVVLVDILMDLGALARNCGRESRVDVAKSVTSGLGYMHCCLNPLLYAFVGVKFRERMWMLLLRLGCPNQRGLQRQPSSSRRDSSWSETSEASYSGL
Experiment: Whole-cell 125I-CXCL11 binding assay, L1.2 transfectants
Conditions: D112N-CXCR3 transfectants (Figure 1); read-out: IC50 for displacement of 125I-CXCL11
measure: IC50 (µM)
Give bare numbers, in µM.

Find the recorded IC50 belonging to Cc1ccc(-c2ccc3c(c2)C=C(C(=O)Nc2ccc(C[N+](C)(C)C4CCOCC4)cc2)CCC3)cc1.[Cl-] and report it.
17.2

---

Biological target: WT CXCR3 (Homo sapiens, UniProt P49682)
Construct: expressed in transfected cells; host or cells: murine pre-B cell line L1.2, transient transfection by electroporation
Sequence (P49682 whole entry): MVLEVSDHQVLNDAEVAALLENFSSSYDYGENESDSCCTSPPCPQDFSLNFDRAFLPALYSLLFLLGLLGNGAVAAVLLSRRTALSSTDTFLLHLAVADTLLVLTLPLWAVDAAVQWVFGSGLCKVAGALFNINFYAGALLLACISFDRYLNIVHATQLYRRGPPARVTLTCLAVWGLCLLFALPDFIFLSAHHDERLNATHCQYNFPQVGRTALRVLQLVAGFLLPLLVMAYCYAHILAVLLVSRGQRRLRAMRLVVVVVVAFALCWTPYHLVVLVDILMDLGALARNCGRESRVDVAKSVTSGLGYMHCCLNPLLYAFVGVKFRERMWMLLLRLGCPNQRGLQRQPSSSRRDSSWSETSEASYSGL
Assay: Chemotaxis assay, L1.2 transfectants migrating to CXCL11
Type: cell-based
Details: WT CXCR3, 30 nM CXCL11; read-out: IC50 chemotaxis (mean ± SEM)
measure: IC50 (µM)
Numbers only, in µM.

Data request, read-out IC50, for Cc1ccc(-c2ccc3c(c2)C=C(C(=O)Nc2ccc(C[N+](C)(C)C4CCOCC4)cc2)CCC3)cc1.[Cl-]
15.8
